target: UniProt P13569; test: Membrane Potential Dye, Enteroid Assay B; type: cell-based; details: read-out: Ent. B EC50
pEC50: −log10 of the molar value.
Listing: pEC50 of selected molecules

Worked cases, pEC50 given:
Cc1cccc(C)c1-c1nc2nc(c1C)OC[C@@H](CC(C)C)N(C1CC3(CC(CO)C3)C1)C(=O)c1cccc(c1)S(=O)(=O)N2 (stereo in doubt) [Compound 66]    > 6.00
Cc1cccc(C)c1-c1nc2nc(c1C)OC[C@@H](CC(C)(C)C)N(C1CC3(CC(N(C)C)C3)C1)C(=O)c1cccc(c1)S(=O)(=O)N2 (stereo partly drawn) [Compound 95]    > 6.00

Shift focus to the following entry.
// Cc1cccc(C)c1-c1nc2nc(c1C)OC[C@@H](CC1(C(F)(F)F)CC1)N(C1CC3(CC(CO)C3)C1)C(=O)c1cccc(c1)S(=O)(=O)N2 (stereo partly drawn) [Compound 80] : pEC50 value = > 6.00

###

biological target: CFTR (Homo sapiens); assay: Membrane Potential Dye, Enteroid Assay B; assay type: cell-based
Measured endpoint: Ent. B Max Activity

Cc1cccc(C)c1-c1nc2nc(c1C)OC[C@@H](CC(C)(C)C(F)(F)F)N(C1CC3(CCNCC3)C1)C(=O)c1cccc(c1)S(=O)(=O)N2    +++ (+++ is >60%)
Cc1cccc(C)c1-c1nc2nc(c1C)OC[C@@H](CC(C)(C)C)N(C1CC3(CC(NC(=O)OC(C)C)C3)C1)C(=O)c1cccc(c1)S(=O)(=O)N2 (single isomer, unassigned) [Compound 65]    +++ (+++ is >60%)

###

biological target: UniProt P13569; assay: Membrane Potential Dye, Enteroid Assay B; format: cell-based
Measured endpoint: Ent. B Max Activity

Cc1cccc(C)c1-c1nc2nc(c1C)OC[C@@H](CC1(C(F)(F)F)CC1)N(C1CC3(CC(N(C)C)C3)C1)C(=O)c1cccc(c1)S(=O)(=O)N2 (stereo in doubt) [Compound 90]    +++ (+++ is >60%)
Cc1cccc(C)c1-c1nc2nc(c1-c1cnn(CC(C)C)c1)O[C@H](C)CNC(=O)c1cccc(c1)S(=O)(=O)N2 [Compound 127]    +++ (+++ is >60%)

###

Listing: EC50 of selected molecules
target: CFTR (Homo sapiens, UniProt P13569, DEL508-508); construct: endogenous in cells; host or cells: primary human bronchial epithelial cells, F508del/MF genotype; assay: HBE Assay: Ussing chamber assay of CFTR-mediated short-circuit currents in F508del/MF-HBE cells with 1 μM Ivacaftor; type: cell-based; settings: range of concentrations with 1 μM Ivacaftor, 18-24 hours, 20% human serum
Sequence (P13569 with tags, fused parts or gaps DEL508-508): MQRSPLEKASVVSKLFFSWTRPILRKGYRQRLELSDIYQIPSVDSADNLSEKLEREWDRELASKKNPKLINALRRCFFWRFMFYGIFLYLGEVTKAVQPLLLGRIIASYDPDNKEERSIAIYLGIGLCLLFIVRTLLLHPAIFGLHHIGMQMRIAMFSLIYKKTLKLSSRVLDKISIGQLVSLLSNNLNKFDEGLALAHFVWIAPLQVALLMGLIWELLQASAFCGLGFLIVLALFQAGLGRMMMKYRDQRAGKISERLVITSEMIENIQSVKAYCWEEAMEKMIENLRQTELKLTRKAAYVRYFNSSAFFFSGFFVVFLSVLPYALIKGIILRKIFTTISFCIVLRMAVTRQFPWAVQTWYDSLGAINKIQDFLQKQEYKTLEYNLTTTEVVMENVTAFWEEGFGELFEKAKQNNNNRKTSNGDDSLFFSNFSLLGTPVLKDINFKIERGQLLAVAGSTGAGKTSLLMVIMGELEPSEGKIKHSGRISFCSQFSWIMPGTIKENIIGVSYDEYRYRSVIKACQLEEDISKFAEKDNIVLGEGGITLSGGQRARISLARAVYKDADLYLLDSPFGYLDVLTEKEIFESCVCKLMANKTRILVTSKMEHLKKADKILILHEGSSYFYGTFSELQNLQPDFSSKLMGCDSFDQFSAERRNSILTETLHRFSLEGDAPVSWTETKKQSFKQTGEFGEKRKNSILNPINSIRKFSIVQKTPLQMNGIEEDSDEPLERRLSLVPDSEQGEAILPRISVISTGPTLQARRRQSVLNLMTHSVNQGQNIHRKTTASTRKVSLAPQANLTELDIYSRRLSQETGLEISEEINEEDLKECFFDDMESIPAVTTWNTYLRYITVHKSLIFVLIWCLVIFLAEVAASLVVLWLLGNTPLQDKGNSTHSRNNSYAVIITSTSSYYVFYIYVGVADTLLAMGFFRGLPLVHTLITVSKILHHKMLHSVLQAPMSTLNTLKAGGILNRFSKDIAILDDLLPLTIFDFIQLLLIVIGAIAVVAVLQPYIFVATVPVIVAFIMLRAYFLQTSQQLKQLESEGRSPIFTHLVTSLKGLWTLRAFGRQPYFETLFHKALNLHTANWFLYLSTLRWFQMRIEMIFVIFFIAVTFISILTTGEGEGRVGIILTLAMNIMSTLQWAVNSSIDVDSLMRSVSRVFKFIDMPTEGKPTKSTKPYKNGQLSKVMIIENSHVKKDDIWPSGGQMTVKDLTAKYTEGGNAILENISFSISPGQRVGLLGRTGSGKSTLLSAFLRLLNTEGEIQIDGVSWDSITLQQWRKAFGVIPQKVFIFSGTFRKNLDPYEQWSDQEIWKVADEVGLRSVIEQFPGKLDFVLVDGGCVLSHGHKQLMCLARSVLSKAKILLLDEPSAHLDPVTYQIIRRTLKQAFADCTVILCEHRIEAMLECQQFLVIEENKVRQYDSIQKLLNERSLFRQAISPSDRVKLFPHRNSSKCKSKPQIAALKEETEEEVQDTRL

Worked cases, EC50 given:
Cc1cccc(C)c1-c1nc2nc(c1F)OC[C@@H](CC(C)(C)C)N(Cc1ncc(OC3CCC3)cn1)C(=O)c1cccc(c1)S(=O)(=O)N2    < 1000 nM
Cc1cccc(C)c1-c1nc2nc(c1F)OC[C@@H](CC(C)(C)C)N(Cc1ncc(OC(C)C)cn1)C(=O)c1cccc(c1)S(=O)(=O)N2    < 1000 nM
Cc1cccc(C)c1-c1nc2nc(c1F)OC[C@@H](CC1CC1)N(Cc1ncc(OC(C)C)cn1)C(=O)c1cccc(c1)S(=O)(=O)N2    1000 to 3000 nM

// COc1c2nc(nc1-c1c(C)cccc1C)NS(=O)(=O)c1cccc(c1)C(=O)N(Cc1ncc(OC(C)C)cn1)[C@H](CC(C)C)CO2 : EC50 value = < 1000 nM

###

target: UniProt:P13569; assay: Membrane Potential Dye, Enteroid Assay B; format: cell-based
Measured endpoint: Ent. B Max Activity

Worked cases, Ent. B Max Activity given:
COC(=O)NC1CC2(C1)CC(N1C(=O)c3cccc(c3)S(=O)(=O)Nc3nc(c(C)c(-c4c(C)cccc4C)n3)OC[C@H]1CC(C)(C)C)C2 (single isomer, unassigned) [Compound 61]    +++ (+++ is >60%)
Cc1cccc(C)c1-c1nc2nc(c1-c1ccn(C)n1)OC[C@@H](C)NC(=O)c1cccc(c1)S(=O)(=O)N2    + (+ is <30%)
[H][C@]1(N2C(=O)c3cccc(c3)S(=O)(=O)Nc3nc(c(C)c(-c4c(C)cccc4C)n3)OC[C@H]2CC(C)(C)C)C[C@@]2(C[C@H](C(C)(C)O)C2)C1 (single isomer, unassigned) [Compound 58]    +++ (+++ is >60%)
CC(C)C[C@@H]1COc2nc(nc(-c3ccccc3C(C)C)c2C(F)(F)F)NS(=O)(=O)c2cccc(c2)C(=O)N1    +++ (+++ is >60%)
Cc1cccc(C)c1-c1nc2nc(c1-c1cnn(C(C)C)c1)OC[C@@H](C)NC(=O)c1cccc(c1)S(=O)(=O)N2    + (+ is <30%)
Cc1cccc(C)c1-c1nc2nc(c1C)OC[C@@H](CC(C)C)N([C@H]1C[C@@]3(C[C@H](NC(=O)OC(C)C)C3)C1)C(=O)c1cccc(c1)S(=O)(=O)N2 (single isomer, unassigned) [Compound 51]    +++ (+++ is >60%)
Cc1cccc(C)c1-c1nc2nc(c1C)OC[C@@H](CC(C)(C)C)N(C1CC3(CC3)C1)C(=O)c1cccc(c1)S(=O)(=O)N2    +++ (+++ is >60%)
COC1CC(N2C(=O)c3cccc(c3)S(=O)(=O)Nc3nc(c(C)c(-c4c(C)cccc4C)n3)OC[C@H]2CC(C)C)C1 (stereo in doubt) [Compound 72]    +++ (+++ is >60%)
Cc1cccc(C)c1-c1nc2nc(c1C)OC[C@@H](CC1(C(F)(F)F)CC1)N(C1CC3(CC(CO)C3)C1)C(=O)c1cccc(c1)S(=O)(=O)N2 (some centres unmarked) [Compound 80]    +++ (+++ is >60%)

// Cc1cccc(C)c1-c1nc2nc(c1/C=C/C(C)(C)C)O[C@H](C)CNC(=O)c1cccc(c1)S(=O)(=O)N2 : Ent. B Max Activity value = +++ (+++ is >60%)

###

molecular target: CFTR (Homo sapiens, UniProt P13569); experiment: Membrane Potential Dye, Enteroid Assay B; assay type: cell-based; details: read-out: Ent. B EC50
Sequence (P13569 with tags, fused parts or gaps DEL508-508): as above
Measured endpoint: EC50

COc1ccccc1-c1c2nc(nc1-c1c(C)cccc1C)NS(=O)(=O)c1cccc(c1)C(=O)NC[C@@H](C)O2 [Compound 131]    1000 to 3000 nM
Cc1cccc(C)c1-c1nc2nc(c1C)OC[C@@H](CC(C)(C)C)N(C1CC3(CC(N(C)C)C3)C1)C(=O)c1cccc(c1)S(=O)(=O)N2 (stereo partly drawn) [Compound 94]    < 1000 nM

// Cc1cccc(C)c1-c1nc2nc(c1C)OCCCN(C1CC3(CC(NC(=O)OC(C)(C)C)C3)C1)C(=O)c1cccc(c1)S(=O)(=O)N2 (stereo not drawn) : EC50 value = < 1000 nM

###

Listing: Emax of selected compounds
molecular target: F508del (Homo sapiens, UniProt P13569, DEL508-508); construct: expressed in transfected cells; host or cells: NIH3T3 mouse fibroblasts; test: 3T3 Assay: membrane potential optical assay for F508del correctors in NIH 3T3 cells; format: cell-based; conditions: NIH3T3, F508del corrector assay, read-out: 3T3 Max Activity
Sequence (P13569 with tags, fused parts or gaps DEL508-508): as above

Worked cases, Emax given:
CCc1c2nc(nc1-c1ccccc1CN(C)C)NS(=O)(=O)c1cccc(c1)NC(=O)c1cccc(c1)O2    < 30%
CCc1c2nc(nc1-c1cccc(C)c1C)NS(=O)(=O)c1cccc(c1)NC(=O)c1cccc(c1)O2    > 60%
CCc1c2nc(nc1-c1ccccc1COCCOC)NS(=O)(=O)c1cccc(c1)NC(=O)c1cccc(c1)O2    > 60%

Shift focus to the following entry.
// CCc1c2nc(nc1-c1c(C)c(C)c(C)c(C)c1C)NS(=O)(=O)c1cccc(c1)NC(=O)c1cccc(c1)O2 : Emax value = > 60%

###

target: CFTR (Homo sapiens, UniProt P13569); assay: Membrane Potential Dye, Enteroid Assay B; type: cell-based; conditions: read-out: Ent. B EC50
pEC50: −log10 of the molar value.
Listing: pEC50 of selected compounds

Worked cases, pEC50 given:
COC(=O)NC1CC2(C1)CC(N1C(=O)c3cccc(c3)S(=O)(=O)Nc3nc(c(C)c(-c4c(C)cccc4C)n3)OC[C@H]1CC(C)(C)C)C2 (single isomer, unassigned) [Compound 64]    > 6.00
Cc1cccc(C)c1-c1nc2nc(c1C)OC[C@@H](CC(C)(C)C)N(C1CC3(CC(N)C3)C1)C(=O)c1cccc(c1)S(=O)(=O)N2 (stereo partly drawn) [Compound 96]    > 6.00

Shift focus to the following entry.
// COc1ccc(-c2c3nc(nc2-c2c(C)cccc2C)NS(=O)(=O)c2cccc(c2)C(=O)NC[C@@H](C)O3)cc1 : pEC50 value = > 6.00
